read-out: Intercellular Adhesion Molecule 1 (ICAM1), ICAM1 (gene 3383); assay: LTEA_HepaRG_ICAM1: Life Technologies and Expression Analysis (LTEA) Assay for Intercellular Adhesion Molecule 1 (ICAM1) using HepaRG (AID 2283507); conditions: mRNA level, 48 h; actives raise or lower the signal
The source made the active and inactive calls. Rule for the calls: active = hit-call score of the fitted dose curve at least 0.9, where 1 is the maximum; inactive = score below 0.9.
Outcomes: active, inactive

INSERT INTO results (compound, cat) VALUES
  ('CCCCC(CC)COC(=O)c1ccccc1C(=O)OCC(CC)CCCC (configuration not stated)', 'inactive'),
  ('C#CCOS(=O)OC1CCCCC1Oc1ccc(C(C)(C)C)cc1 (configuration not stated)', 'inactive'),
  ('CCc1nn(C)c(C(=O)NCc2ccc(C(C)(C)C)cc2)c1Cl', 'active'),
  ('CC1COC(Cn2cncn2)(c2ccc(Oc3ccc(Cl)cc3)cc2Cl)O1 (configuration not stated)', 'active'),
  ('Oc1ccccc1-c1ccccc1', 'inactive'),
  ('C=CCC1=C(C)[C@@H](OC(=O)[C@@H]2[C@@H](C=C(C)C)C2(C)C)CC1=O', 'inactive'),
  ('Fc1ccc(Oc2ccnc3cc(Cl)cc(Cl)c23)cc1', 'inactive');
